Source listed as patent US11286268B1.

Target Or Test System: recombinant eIF4E (Homo sapiens (Human))
Sequence (P06730 whole entry): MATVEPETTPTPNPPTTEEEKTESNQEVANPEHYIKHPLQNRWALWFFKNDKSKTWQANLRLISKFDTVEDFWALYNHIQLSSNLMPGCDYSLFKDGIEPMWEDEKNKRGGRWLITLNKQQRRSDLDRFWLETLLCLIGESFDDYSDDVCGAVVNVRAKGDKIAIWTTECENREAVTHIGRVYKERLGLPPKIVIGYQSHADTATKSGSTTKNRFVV
Assay Protocol: Fluorescence polarization competition assay for eIF4E binding potency
Condition Info: fluorescence polarization competition, 75 nM recombinant eIF4E, 20 nM EDA-m7GDP-ATTO-550; IC50 class; read-out: elF4E FP
pIC50: −log10 of the molar value.
Parameter Measured: pIC50

Below are worked cases with known answers.
{"Item Smiles": "Cc1cc(-c2cc(Cl)ccc2OCCn2c(C)nc3cc(C(F)(F)F)c(-c4ccn(C)n4)c(C#N)c3c2=O)c2scc(C(=O)O)c2n1", "pIC50": "> 7.30"}
{"Item Smiles": "Cc1cc(-c2cc(Cl)ccc2OCCn2c(C)nc3c(C)nc(-c4c(C)cccc4F)c(C#N)c3c2=O)c2scc(C(=O)O)c2n1", "pIC50": "> 7.30"}
{"Item Smiles": "Cc1nc2cnc(N(C)C3CCN(CC(F)(F)C(C)(F)F)CC3)c(C#N)c2c(=O)n1CC#Cc1ccc(Cl)cc1-c1ccnc2c(C(=O)O)csc12", "pIC50": "> 7.30"}
{"Item Smiles": "CSCc1cc(F)c2cc(C)n(CCOc3ccc(Cl)cc3-c3ccnc4c(C(=O)O)csc34)c(=O)c2c1C#N", "pIC50": "> 7.30"}
{"Item Smiles": "O=C(O)c1csc2c(-c3cc(Cl)ccc3OCCn3c(=O)c4ccccc4c4cnncc43)ccnc12", "pIC50": "< 6.00"}

Attention now turns to another entry.
Identify the reported pIC50 for the following entry. "Cc1cc(-c2cc(Cl)ccc2OCCn2c(C)nc3cnc(N4CCC4)c(C#N)c3c2=O)c2scc(C(=O)O)c2n1"
> 7.30
